Experiment: Biodistribution of 177Lu-labeled αMSH analogues in mice bearing B16F10 mouse melanoma
Format: in vivo, C57BL/6J mice
Details: mouse, stomach, iv, total radioactivity; 120 h p.i., C57BL/6J mice, B16F10 melanoma; read-out: Biodistribution, Stomach
PARAMETER MEASURED: tissue uptake at 120 h (%ID/g)
# value in %ID/g; strip the unit string

Q) Recorded tissue uptake at 120 h for CCCC[C@H](NC(=O)CN1CCC(NC(=O)CN2CCN(CC(=O)O)CCN(CC(=O)O)CCN(CC(=O)O)CC2)CC1)C(=O)N[C@H]1CC(=O)NCCCC[C@@H](C(N)=O)N(C)C(=O)[C@H](Cc2c[nH]c3ccccc23)NC(=O)[C@H](CCCNC(=N)N)N(C)C(=O)[C@@H](Cc2ccccc2)NC(=O)[C@H](Cc2c[nH]cn2)NC1=O [^177Lu-labeled CCZ01106, metal not drawn] , please?
A) 0.1

Q) Recorded tissue uptake at 120 h for CCCC[C@H](NC(=O)CN1CCC(NC(=O)[C@H](CCCCNC(=O)CN2CCN(CC(=O)O)CCN(CC(=O)O)CCN(CC(=O)O)CC2)NC(=O)[C@H](CCC(=O)O)NC(=O)CCCc2ccc(I)cc2)CC1)C(=O)N[C@H]1CC(=O)NCCCC[C@@H](C(N)=O)NC(=O)[C@H](Cc2c[nH]c3ccccc23)NC(=O)[C@H](CCCNC(=N)N)NC(=O)[C@@H](Cc2ccccc2)NC(=O)[C@H](Cc2c[nH]cn2)NC1=O [^177Lu-labeled CCZ01082, metal not drawn] , please?
A) 0.19

Q) Recorded tissue uptake at 120 h for CCCC[C@H](NC(=O)CN1CCC(NC(=O)[C@H](CCCCNC(=O)CN2CCN(CC(=O)O)CCN(CC(=O)O)CCN(CC(=O)O)CC2)NC(=O)[C@H](CCC(=O)O)NC(=O)CCCc2ccc(I)cc2)CC1)C(=O)N[C@H]1CC(=O)NCCCC[C@@H](C(N)=O)N(C)C(=O)[C@H](Cc2c[nH]c3ccccc23)N(C)C(=O)[C@H](CCCNC(=N)N)N(C)C(=O)[C@@H](Cc2ccccc2)NC(=O)[C@H](Cc2c[nH]cn2)N(C)C1=O [^177Lu-labeled CCZ01088, metal not drawn] , please?
A) 1.83
